Cited source: the supplement of paper PMC9170038

Some sequences, each annotated with its measured apparent KD of MS2 coat protein.
# Test system: MS2 coat protein
# experimental.protocol: apparent KD of MS2 coat protein; designed switch direction (-1 OFF switch, 1 ON switch): -1; higher = weaker reporter binding
# test.parameters: Eterna round: R95; input ligand: none
readout: apparent KD of MS2 coat protein

CUUCACCCACCAGAGCUCACCCACAUACCUACUCAGGUGACAUGAGGAUCACCCAUGUUUUUUGCCCGUCUUAUCUU [Vexebedi] (puzzle: Sensor v3, turn-off variant 2); 30.4 nM
CAUGAUCUUCGGAUCAUGUACAUGAGGAUCACCCAUGUGACGAGUAUAUCUUCAAACAAGCUUUUUGCUCGUCUUAU [Sensor v3 - Turn-off variant 1 - 23] (puzzle: Sensor v3, turn-off variant 1); 41.6 nM
CAGAAACAUGAGGAUCACCCAUGUGAGGAUAUGCGUACGUUGUCCGUAGGCGACGUGCGCAGAAGGCGCAAAGG [Mat - Mod of JL D85] (puzzle: Exclusion 1); 116 nM
